Entries and their SPOT peptide array binding signal intensity values follow.
Target: ScHse1
Test: SPOT peptide array binding signal intensity (averaged, normalized) (arbitrary units (background-subtracted, floor 0; scale differs between SH3 domains)); higher = stronger binding of the SH3 domain to the peptide

The examples below pair each entry with its known result.
[[record]]
binder = "RRRDFGAPANKRPRR"
measured_value = 584

[[record]]
binder = "FIRKRAPTPPAPSRS"
measured_value = 922

[[record]]
binder = "PPPPPPPPPPLPQSL"
measured_value = 19


Q: Any idea what SPOT peptide array binding signal intensity was measured for `GRLRPKRIAPWHLIQ` ?
A: 1020
